- System tested: Δ^5 -lipoxygenase from rat basophilic leukemia (RBL-1) cells (Rattus norvegicus)
- Construct: The isolated cytosolic fraction was stored in liquid N2 for up to 8 weeks without loss of 5-LO enzyme activity; endogenous in cells
- Sequence (P12527 1-673): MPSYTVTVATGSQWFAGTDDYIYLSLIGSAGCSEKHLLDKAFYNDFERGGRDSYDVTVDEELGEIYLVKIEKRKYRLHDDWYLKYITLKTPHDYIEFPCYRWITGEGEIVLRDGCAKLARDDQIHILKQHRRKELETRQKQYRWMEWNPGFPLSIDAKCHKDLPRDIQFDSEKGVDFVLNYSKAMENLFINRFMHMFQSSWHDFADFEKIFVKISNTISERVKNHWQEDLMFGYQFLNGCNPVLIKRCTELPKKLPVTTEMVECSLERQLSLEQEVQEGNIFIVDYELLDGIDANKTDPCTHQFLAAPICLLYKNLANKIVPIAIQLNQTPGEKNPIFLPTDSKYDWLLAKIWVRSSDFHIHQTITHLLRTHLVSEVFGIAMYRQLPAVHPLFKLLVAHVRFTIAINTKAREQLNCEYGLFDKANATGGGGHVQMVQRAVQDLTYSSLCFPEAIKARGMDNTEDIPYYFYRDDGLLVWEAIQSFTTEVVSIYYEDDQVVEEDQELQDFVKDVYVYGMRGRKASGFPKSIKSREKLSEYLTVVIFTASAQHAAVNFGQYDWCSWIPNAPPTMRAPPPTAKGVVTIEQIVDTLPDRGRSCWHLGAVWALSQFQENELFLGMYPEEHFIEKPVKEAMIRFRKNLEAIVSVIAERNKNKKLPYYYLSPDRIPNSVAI
- Experiment notes: In vitro test for Δ^5-lipoxygenase inhibitors (5-HETE radioimmunoassay)
- Study conditions: RBL-1 5-LO, 5-HETE formation; read-out: Inhib. of Δ^5 Lipoxygenase IC50
pIC50: −log10 of the molar value. Where a name gives a salt, the structure may show the parent alone.
Metric: pIC50

Incoming: Request - read-out pIC50 | tested on Δ^5 -lipoxygenase from rat basophilic leukemia (RBL-1) cells (Rattus norvegicus) | compound CCCc1c(OCCCCCCc2ccc(C(C)C)c(O)c2O)ccc(C(=O)O)c1O
Outgoing: 7.00

[I] CCCc1c(OCCCCCCc2cccc(OC(C)=O)c2OC(C)=O)ccc(C(=O)O)c1O
[II] CCCc1c(OCCCCCCc2cccc(O)c2O)ccc(C(=O)OCCN(CC)CC)c1O [hydrochloride]
[III] CCCc1c(OCCCCCCc2ccc(O)c(O)c2)ccc(C(=O)O)c1O
[IV] CCCc1c(OCCCCc2cccc(O)c2O)ccc(C(=O)O)c1O
Incoming: Arrange items by their pIC50 values in increasing order. Provide the ranking by listing each label in its place in the requested order.
Outgoing: II, I, IV, III
(II: 6.17, I: 6.82, IV: 7.05, III: 8.30)

[A] CCCc1cc(C(=O)O)ccc1OCCCCCCc1cccc(O)c1O
[B] CCCc1c(OCCCCCCCc2cccc(O)c2O)ccc(C(=O)O)c1O
Incoming: Which entry has a larger number for pIC50, A or B ? Kindly give the label for the entry you pick.
Outgoing: B
(B: 8.30, A: 7.70)

---

- System tested: Δ^5 -lipoxygenase from rat basophilic leukemia (RBL-1) cells (Rattus norvegicus)
- Construct: The isolated cytosolic fraction was stored in liquid N2 for up to 8 weeks without loss of 5-LO enzyme activity; endogenous in cells
- Sequence (P12527 1-673): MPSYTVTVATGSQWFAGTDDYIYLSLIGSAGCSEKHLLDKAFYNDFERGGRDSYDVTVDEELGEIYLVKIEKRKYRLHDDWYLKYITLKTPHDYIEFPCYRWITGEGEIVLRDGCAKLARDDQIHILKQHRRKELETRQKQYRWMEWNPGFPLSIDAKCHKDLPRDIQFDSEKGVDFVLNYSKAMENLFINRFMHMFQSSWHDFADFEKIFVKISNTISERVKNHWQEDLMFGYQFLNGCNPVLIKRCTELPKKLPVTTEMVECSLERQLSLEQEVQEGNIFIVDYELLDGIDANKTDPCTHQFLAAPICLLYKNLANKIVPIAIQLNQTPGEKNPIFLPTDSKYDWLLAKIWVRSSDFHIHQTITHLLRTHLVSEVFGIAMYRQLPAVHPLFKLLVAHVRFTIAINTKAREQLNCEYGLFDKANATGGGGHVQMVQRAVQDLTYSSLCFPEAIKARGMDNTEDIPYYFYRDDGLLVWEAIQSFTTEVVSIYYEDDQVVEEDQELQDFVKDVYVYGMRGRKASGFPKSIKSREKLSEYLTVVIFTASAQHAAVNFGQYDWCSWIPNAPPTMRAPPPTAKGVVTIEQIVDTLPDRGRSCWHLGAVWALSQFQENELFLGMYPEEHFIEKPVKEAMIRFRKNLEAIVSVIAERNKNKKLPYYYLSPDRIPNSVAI
- Experiment notes: In vitro test for Δ^5-lipoxygenase inhibitors (5-HETE radioimmunoassay)
- Study conditions: RBL-1 5-LO, 5-HETE formation; read-out: Inhib. of Δ^5 Lipoxygenase IC50
pIC50: −log10 of the molar value.
Metric: pIC50

[1] O=C(O)c1ccc(OCCCCCCc2cccc(O)c2O)cc1
[2] CCCc1c(OCCCCCCc2cccc(O)c2O)ccc(C(C)=O)c1O
[3] O=C(O)c1ccc(OCCCCCCc2cccc(O)c2O)cc1O
Incoming: Please list these compounds in decreasing order of pIC50. Provide the ranking by listing each label in its place in the requested order.
Outgoing: 2, 1, 3
(2: 7.52, 1: 6.77, 3: 6.49)

---

- System tested: Δ^5 -lipoxygenase from rat basophilic leukemia (RBL-1) cells (Rattus norvegicus)
- Construct: The isolated cytosolic fraction was stored in liquid N2 for up to 8 weeks without loss of 5-LO enzyme activity; endogenous in cells; host or cells: RBL-1 cells (ATCC CRL 1378), 113,000×g supernatant (cytosol)
- Experiment notes: In vitro test for Δ^5-lipoxygenase inhibitors (5-HETE radioimmunoassay)
- Assay type: biochemical
- Study conditions: read-out: Inhib. of Δ^5 Lipoxygenase, % inhibition at 0.1 μM
Metric: inhibition at 0.1 µM (%)

Incoming: For the compound CCCc1c(O)c(C(=O)O)cc(Cl)c1OCCCCCCc1cccc(O)c1O , what inhibition at 0.1 µM is on record?
Outgoing: 48

[1] CCCc1c(OCCCCCCCCc2cccc(O)c2O)ccc(C(=O)O)c1O
[2] CCCc1c(OCCCCCCc2ccc(C(C)C)c(O)c2O)ccc(C(C)=O)c1O
[3] CCCc1c(OCCCCCCCCc2cccc(O)c2O)ccc(C(C)=O)c1O
Incoming: Please list the entries, largest inhibition at 0.1 µM first. Provide the ranking by listing each label in its place in the requested order.
Outgoing: 3, 1, 2
(3: 95%, 1: 62%, 2: 35%)

---

- Tested on: myeloperoxidase accumulation (acetic acid-induced colitis)
- Experiment notes: Acetic Acid-Induced Colitis in Rats, In Vivo
- Design: species or system male rats (Sprague-Dawley)
- Study conditions: 10 mg/kg p.o
Recorded Rat Acetic Acid Colitis Model % Inhib. of Myeloperoxidase Accumulation, one value per entry.
Numbers only here, please. The scale is %.

Answered examples (3):
Incoming: For the molecule CCCc1c(OCCCc2cccc(O)c2O)ccc(C(=O)O)c1O , what Rat Acetic Acid Colitis Model % Inhib. of Myeloperoxidase Accumulation is on record?
Outgoing: 54

Incoming: For the molecule CCCc1c(OCCCCCC(=O)c2cc(O)c(O)cc2F)ccc(C(=O)O)c1O , what Rat Acetic Acid Colitis Model % Inhib. of Myeloperoxidase Accumulation is on record?
Outgoing: 40

Incoming: For the molecule CCCc1c(OCCc2ccc(O)c(O)c2)ccc(C(=O)O)c1O , what Rat Acetic Acid Colitis Model % Inhib. of Myeloperoxidase Accumulation is on record?
Outgoing: 56

---
Incoming: For the molecule CCCc1c(OCCCCCc2ccc(O)c(O)c2)ccc(C(C)=O)c1O , what Rat Acetic Acid Colitis Model % Inhib. of Myeloperoxidase Accumulation is on record?
Outgoing: 52

---

Recorded Rat Acetic Acid Colitis Model % Inhib. of Myeloperoxidase Accumulation, one value per entry.
- Tested on: myeloperoxidase accumulation (acetic acid-induced colitis)
- Experiment notes: Acetic Acid-Induced Colitis in Rats, In Vivo
- Set-up: species or system male rats (Sprague-Dawley)
- Study conditions: 10 mg/kg p.o
- From the text: The rat acetic acid-induced colitis bioassay has been described by J. E. Krawisz, et al. in Amer. J. Proc. Gastro. Col. Rec. Surg. 31: 11-18 (1980), and by P. Sharon and W. F. Stenson in Gastroenterolgy 88: 55-63 (1985) and 86: 453-460 (1984). Acetic acid-induced colitis is characterized by the movement of inflammatory cells into the colon, with the number of such cells in the mucosa being measured by the activity of myeloperoxidase, a marker enzyme for these cells. […]
Numbers only here, please. The scale is %.

Incoming: Request - read-out Rat Acetic Acid Colitis Model % Inhib. of Myeloperoxidase Accumulation | tested on myeloperoxidase accumulation (acetic acid-induced colitis) | compound CCCc1c(OCCCCc2cccc(O)c2O)ccc(C(C)=O)c1O
Outgoing: 46

Values were extracted from patent US5025036A.
